// reported IC50 for each item listed
# System: Plasmodium falciparum
# experimental details: Antiprotozoal activity against IEF stage of Plasmodium falciparum NF54 after 48 hrs by [3H]-hypoxanthine incorporation assay
# Format: functional, organism-based
Non-standard residues stand in square brackets, D forms with d. Residues, ends and D or L forms follow the SMILES beside them. *: point of attachment. Tryptamide = c1ccc2c(CCN*)c[nH]c2c1; NMeF = CN[C@@H](Cc1ccccc1)C(=O)O; NMeL = CN[C@@H](CC(C)C)C(=O)O; NHPhenethyl = c1ccc(CCN*)cc1; NMeV = CN[C@H](C(=O)O)C(C)C; NMeA = CN[C@@H](C)C(=O)O
quantity: IC50 (µg/mL)

compound	system tested	value
CN[C@@H](CC(C)C)C(=O)N(C)[C@@H](CC(C)C)C(=O)N(C)[C@@H](CC(C)C)C(=O)N(C)[C@@H](CC(C)C)C(=O)NCCc1c[nH]c2ccccc12 (H-[NMeL][NMeL][NMeL][NMeL]-Tryptamide)	Plasmodium falciparum	0.6
CN[C@@H](C)C(=O)N(C)[C@@H](CC(C)C)C(=O)N(C)[C@@H](CC(C)C)C(=O)N(C)[C@@H](CC(C)C)C(=O)NCCc1ccccc1 (H-[NMeA][NMeL][NMeL][NMeL]-NHPhenethyl)	Plasmodium falciparum	1.85
CN[C@@H](Cc1ccccc1)C(=O)N(C)[C@H](C(=O)N(C)[C@@H](CC(C)C)C(=O)N(C)[C@H](C(=O)NCCc1ccccc1)C(C)C)C(C)C (H-[NMeF][NMeV][NMeL][NMeV]-NHPhenethyl)	Plasmodium falciparum	0.1
